assay system: Ubiquitin-conjugating enzyme E2 N (Homo sapiens, UniProt P61088);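 note: Dose-response confirmation in a TR-FRET assay detecting UBC13-driven polyubiquitin chain formation, inhibition measured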
Sequence (P61088 whole entry): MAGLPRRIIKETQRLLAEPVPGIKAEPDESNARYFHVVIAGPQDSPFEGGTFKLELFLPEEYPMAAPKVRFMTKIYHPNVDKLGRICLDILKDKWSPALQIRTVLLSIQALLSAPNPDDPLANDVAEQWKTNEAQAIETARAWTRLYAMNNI
Assay type: functional
Active and inactive are the calls of the source.
measured quantity: IC50

> print(dat)
                                   compound  measured.quantity  experimental.value
1  CNCC(O)c1cc(OCc2ccccc2)c(OCc2ccccc2)cc1F (configuration not stated)               IC50  > 20 µM (inactive)

Entry COc1ccccc1NC(=O)c1c(/N=C/c2c(O)ccc3ccccc23)cnn1C — recorded IC50 = > 20 µM (inactive)

Entry C=CCn1c(NC(=O)c2ccc(C)cc2)nc2ccccc21 — recorded IC50 = > 20 µM (inactive)

Entry Cc1cccc(OCC(O)CN2CCN(CCN3C(=O)c4cccc5cccc(c45)C3=O)CC2)c1C (configuration not stated) — recorded IC50 = > 20 µM (inactive)

Entry CCCCCCCCCCCCCCCC[N+](C)(C)C — recorded IC50 = > 20 µM (inactive)

Entry Cc1ccc(S(=O)(=O)N2CCCC(C(=O)NNCC(=O)Nc3cc(F)ccc3F)C2)cc1 (configuration not stated) — recorded IC50 = > 20 µM (inactive)

Entry Cc1ccc2nc(N=C(N)NC(=O)NC3CCCCC3)nc(C)c2c1 — recorded IC50 = > 20 µM (inactive)

Entry CN(C)CCOc1ccc(-c2c(-c3ccsc3)sc3ccccc23)cc1 — recorded IC50 = > 20 µM (inactive)

Entry Clc1ccc(CCC(Cn2ccnc2)Sc2c(Cl)cccc2Cl)cc1 (configuration not stated) [BUTOCONAZOLE NITRATE] — recorded IC50 = > 20 µM (inactive)
